The values you see were collected from patent US11312712B2.

Let's look at some molecules and their measured IC50.
target: GluA1o-γ8 (GRIA1o-CACNG8 fusion construct) (Homo sapiens (Human), UniProt P42261+Q8WXS5); assay: Calcium flux assay (FLIPR), inhibition of TARP γ8 dependent AMPA receptor activity; details: GluA1o-γ8 (GRIA1o-CACNG8 fusion) in HEK293 cells, calcium flux after 15 μM glutamate
Sequence (P42261 other isoform, or with tags, fused parts or gaps): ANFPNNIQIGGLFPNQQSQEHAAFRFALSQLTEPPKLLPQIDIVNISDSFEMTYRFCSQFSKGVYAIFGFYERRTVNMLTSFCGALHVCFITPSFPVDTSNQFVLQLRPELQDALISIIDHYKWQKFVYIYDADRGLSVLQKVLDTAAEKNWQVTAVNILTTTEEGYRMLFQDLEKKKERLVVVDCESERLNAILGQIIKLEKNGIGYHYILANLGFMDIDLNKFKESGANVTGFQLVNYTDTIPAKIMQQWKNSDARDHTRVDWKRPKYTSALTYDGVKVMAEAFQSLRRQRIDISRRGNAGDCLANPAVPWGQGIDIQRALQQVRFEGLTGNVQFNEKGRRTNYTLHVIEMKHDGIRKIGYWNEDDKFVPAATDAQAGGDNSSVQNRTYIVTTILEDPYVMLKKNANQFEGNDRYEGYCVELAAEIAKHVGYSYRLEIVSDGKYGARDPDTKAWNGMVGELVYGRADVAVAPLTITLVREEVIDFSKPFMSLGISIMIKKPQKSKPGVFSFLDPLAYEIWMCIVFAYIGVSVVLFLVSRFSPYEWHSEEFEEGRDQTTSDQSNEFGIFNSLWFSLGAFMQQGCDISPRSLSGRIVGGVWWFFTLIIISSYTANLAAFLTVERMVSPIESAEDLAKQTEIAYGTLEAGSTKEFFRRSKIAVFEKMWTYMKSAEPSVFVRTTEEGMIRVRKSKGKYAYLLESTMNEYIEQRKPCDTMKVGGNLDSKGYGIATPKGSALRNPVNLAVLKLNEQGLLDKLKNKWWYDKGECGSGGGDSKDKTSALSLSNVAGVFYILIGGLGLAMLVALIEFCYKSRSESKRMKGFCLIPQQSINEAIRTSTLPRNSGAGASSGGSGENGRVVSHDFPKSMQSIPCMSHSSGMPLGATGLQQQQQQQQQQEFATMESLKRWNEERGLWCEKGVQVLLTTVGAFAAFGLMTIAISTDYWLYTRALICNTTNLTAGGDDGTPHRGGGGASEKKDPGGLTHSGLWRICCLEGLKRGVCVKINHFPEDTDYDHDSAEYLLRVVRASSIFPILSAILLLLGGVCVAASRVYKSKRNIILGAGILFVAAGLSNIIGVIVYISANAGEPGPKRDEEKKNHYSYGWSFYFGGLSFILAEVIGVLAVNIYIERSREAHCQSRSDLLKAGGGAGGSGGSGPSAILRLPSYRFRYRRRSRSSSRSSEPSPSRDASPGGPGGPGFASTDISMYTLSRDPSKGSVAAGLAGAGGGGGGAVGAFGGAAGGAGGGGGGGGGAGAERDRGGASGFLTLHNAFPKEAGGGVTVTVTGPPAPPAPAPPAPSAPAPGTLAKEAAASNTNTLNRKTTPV
MEASUREMENT KIND: IC50 (nM)

CC(C)Cc1nc2ccc(C(F)(F)F)nc2n1-c1ccc2[nH]ncc2c1	25.1
Cc1cc(-n2c(C(C)C)cc3ccc(C(F)(F)F)nc32)cc2cn[nH]c12	0.00794
Cc1cc(-n2c(C)nc3ccc(C(F)(F)F)nc32)cc2cn[nH]c12	0.631
CC(C)c1nc2ccc(C(C)(F)F)nc2n1-c1ccc2[nH]ncc2c1	5.01
Cc1ccc2nc(-c3ccnc(F)c3)n(-c3cc(C)c4[nH]ncc4c3)c2n1	0.501
Cc1ccc2cc(-c3ccccc3)n(-c3cnc4c(c3)CC(=O)N4)c2n1	0.251
Cc1ccc2nc(C(C)(F)F)n(-c3cc(Cl)c4[nH]ncc4c3)c2n1	1.26
CC(C)c1nc2ccc(C(F)(F)F)nc2n1-c1cc(Br)c2[nH]ncc2c1	0.01
Fc1ccc(-c2nc3ccc(C(F)(F)F)nc3n2-c2ccc3[nH]ncc3c2)nc1	3.16
CCc1nc2ccc(C(F)(F)F)nc2n1-c1ccc2[nH]ncc2c1	7.94
CC(C)c1nc2ccc(C(F)(F)F)nc2n1-c1ccc2[nH]c(=O)oc2c1	15.8
CC(C)Cc1nc2ccc(C(F)(F)F)nc2n1-c1ccc2c(c1)CC(=O)N2	10
Cc1cc(-n2c(C=O)cc3ccc(C(F)(F)F)nc32)cc2c1NC(=O)C2	0.316
COc1ccc2cc(-c3ccc(F)cc3)n(-c3ccc4[nH]ccc4c3)c2n1	631
Cc1ccc2nc(C3CCC3)n(-c3ccc4[nH]ncc4c3)c2n1	0.794
O=c1[nH]c2ccc(-n3c(-c4ccc(F)cc4)nc4ccc(CO)nc43)cc2s1	39.8
Fc1ccc(-c2nc3ccc(C4CC4)nc3n2-c2ccc3[nH]ncc3c2)cc1	0.794
COCCc1nc2ccc(C(F)(F)F)nc2n1-c1ccc2c(c1)CC(=O)N2	251

----------
pIC50 overview
biological target: GluA1o-γ8 (GRIA1o-CACNG8 fusion construct) (Homo sapiens (Human), UniProt P42261+Q8WXS5); assay: Calcium flux assay (FLIPR), inhibition of TARP γ8 dependent AMPA receptor activity; conditions: GluA1o-γ8 (GRIA1o-CACNG8 fusion) in HEK293 cells, calcium flux after 15 μM glutamate
pIC50: −log10 of the molar value.
MEASUREMENT KIND: pIC50

COc1ccc2nc(-c3ccccc3)n(-c3ccc4[nH]c(=O)sc4c3)c2n1 [Example 18]	8.40
C=C(C)c1cc(-n2c(C(F)(F)F)nc3ccc(C(F)(F)F)nc32)cc2cn[nH]c12 [Example 305]	10.70
Cc1cc(-c2nc3ccc(C(F)(F)F)nc3n2-c2ccc3[nH]ncc3c2)ccc1F [Example 121]	9.30
O=C1Cc2cc(-n3c(C(F)(F)F)nc4ccc(C(F)(F)F)nc43)ccc2N1 [Example 88]	8.80
Cc1ccc2nc(C3CCC3)n(-c3ccc4[nH]c(=O)sc4c3)c2n1 [Example 145]	9.60
COc1nc2ccc(C(F)(F)F)nc2n1-c1ccc2[nH]ncc2c1 [Example 129]	7.80
FC(F)(F)c1ccc2nc(C(F)(F)F)n(-c3cc(Br)c4[nH]ncc4c3)c2n1 [Example 187]	11.00
O=C1Cc2cc(-n3c(-c4ccc(F)cc4)c(Br)c4cccnc43)ccc2N1 [Example 346]	8.40
